Tested on: RARg homodimer (NR concentration 270 nM)
assay.details: PBM binding z-score (relative to random genomic background probes); higher = stronger binding; sequences stand for … in GC…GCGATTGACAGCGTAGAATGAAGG
Answer each item with its documented PBM binding z-score.

Example results:
The reported PBM binding z-score value, RARg homodimer (NR concentration 270 nM), for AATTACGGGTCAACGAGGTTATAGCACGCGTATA reads 4.88

The reported PBM binding z-score value, RARg homodimer (NR concentration 270 nM), for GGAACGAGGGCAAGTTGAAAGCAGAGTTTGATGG reads 1.98

The reported PBM binding z-score value, RARg homodimer (NR concentration 270 nM), for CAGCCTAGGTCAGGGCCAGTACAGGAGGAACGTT reads 3.74

The reported PBM binding z-score value, RARg homodimer (NR concentration 270 nM), for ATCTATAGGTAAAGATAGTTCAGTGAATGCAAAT reads 0.972

Look up PBM binding z-score for the entries below, preserving their order.
1. CATACAGGGTCAGCTAGGCCAGCGTAGGGACGGC
2. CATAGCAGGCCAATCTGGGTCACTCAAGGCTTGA
3. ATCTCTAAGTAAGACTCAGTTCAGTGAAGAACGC
4. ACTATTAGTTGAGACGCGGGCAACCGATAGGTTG
5. CGTCCAAGGTCAGCAGGCCAGTGAAAGCGACGTG
6. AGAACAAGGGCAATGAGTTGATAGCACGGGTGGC

Ans:
[4.81, 1.57, 0.42, 0.268, 5.77, 1.4]

Look up PBM binding z-score for the entries below, preserving their order.
1. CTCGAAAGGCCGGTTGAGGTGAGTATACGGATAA
2. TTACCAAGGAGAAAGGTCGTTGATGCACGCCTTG

Ans:
[0.383, 0.929]

---

Tested on: RARb:RXRa (NR concentration 270 nM, RXRa partner concentration 90 nM)
assay.details: PBM binding z-score (relative to random genomic background probes); higher = stronger binding; sequences stand for … in GC…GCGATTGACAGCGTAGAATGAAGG
We'd kindly ask you to apply these PBM binding z-score classes: bucket 1 (below 1), bucket 2 (1 to below 3), bucket 3 (3 or more)

Q: Which class does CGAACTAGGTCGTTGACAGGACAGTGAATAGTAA fall in?
Ans: bucket 2

Further cases:
Q: Which class does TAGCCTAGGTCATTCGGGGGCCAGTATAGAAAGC fall in?
Ans: bucket 3

---

System: LXRb homodimer (NR concentration 270 nM)
assay.details: PBM binding z-score (relative to random genomic background probes); higher = stronger binding; sequences stand for … in GC…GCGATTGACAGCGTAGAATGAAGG
Answer each item with its documented PBM binding z-score.

Example results:
Entry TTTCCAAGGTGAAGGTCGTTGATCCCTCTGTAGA ; PBM binding z-score = -0.21

Entry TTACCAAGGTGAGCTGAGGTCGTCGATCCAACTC ; PBM binding z-score = -1.82

Entry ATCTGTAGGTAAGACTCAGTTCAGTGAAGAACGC ; PBM binding z-score = -0.0598

Entry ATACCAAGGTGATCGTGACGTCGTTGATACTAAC ; PBM binding z-score = -0.176

Entry CCAACTAGGTCAAGGTCAAAGTCGGTTTGTGCCA ; PBM binding z-score = 1.43

Look up PBM binding z-score for the entries below, preserving their order.
1. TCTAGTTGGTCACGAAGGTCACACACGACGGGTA
2. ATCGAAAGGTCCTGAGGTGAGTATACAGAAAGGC
3. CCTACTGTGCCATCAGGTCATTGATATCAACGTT
4. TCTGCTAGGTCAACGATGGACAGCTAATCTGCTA

Ans:
1: 0.769; 2: -0.388; 3: 1.14; 4: -0.137

---

Test system: RARa homodimer (NR concentration 270 nM)
assay.details: PBM binding z-score (relative to random genomic background probes); higher = stronger binding; sequences stand for … in GC…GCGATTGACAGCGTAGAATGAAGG
Answer each item with its documented PBM binding z-score.
Numbers only.

The reported PBM binding z-score value, RARa homodimer (NR concentration 270 nM), for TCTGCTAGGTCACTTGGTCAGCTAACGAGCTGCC reads -0.792

The reported PBM binding z-score value, RARa homodimer (NR concentration 270 nM), for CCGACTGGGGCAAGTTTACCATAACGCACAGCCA reads 0.4

The reported PBM binding z-score value, RARa homodimer (NR concentration 270 nM), for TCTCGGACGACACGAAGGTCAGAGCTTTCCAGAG reads 0.13

The reported PBM binding z-score value, RARa homodimer (NR concentration 270 nM), for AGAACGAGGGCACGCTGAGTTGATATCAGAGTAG reads -0.122

The reported PBM binding z-score value, RARa homodimer (NR concentration 270 nM), for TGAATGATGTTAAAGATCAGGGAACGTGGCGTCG reads 0.502

The reported PBM binding z-score value, RARa homodimer (NR concentration 270 nM), for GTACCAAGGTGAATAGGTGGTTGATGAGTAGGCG reads 0.656

The reported PBM binding z-score value, RARa homodimer (NR concentration 270 nM), for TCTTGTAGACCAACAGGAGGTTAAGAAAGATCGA reads -0.189

The reported PBM binding z-score value, RARa homodimer (NR concentration 270 nM), for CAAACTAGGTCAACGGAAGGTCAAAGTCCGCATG reads 2.65

Look up PBM binding z-score for the entries below, preserving their order.
1. TCATATAGGTAAGACAGGTGAAAGTCGGCATCTA
2. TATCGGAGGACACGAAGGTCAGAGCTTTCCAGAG
3. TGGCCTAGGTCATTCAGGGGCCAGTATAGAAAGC
4. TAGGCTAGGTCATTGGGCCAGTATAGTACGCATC

Ans:
1. 1.31
2. 0.593
3. 0.313
4. 0.178

---

Test system: PPARg:RXRa IVT, anti-PPARg (NR concentration 270 nM, RXRa partner concentration 90 nM)
assay.details: PBM binding z-score (relative to random genomic background probes); higher = stronger binding; sequences stand for … in GC…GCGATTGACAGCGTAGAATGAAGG
reported.endpoint: PBM binding z-score
Give bare numbers.

Look up PBM binding z-score for the entries below, preserving their order.
1. ATCTCTCGGTAAAGTTCAGTGAAAGATCGATAGA
2. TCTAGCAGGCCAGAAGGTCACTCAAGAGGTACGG
3. CCTACTGGGCCAAAGGTTATTGATTCCAATGCTC
4. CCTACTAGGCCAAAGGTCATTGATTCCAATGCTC
5. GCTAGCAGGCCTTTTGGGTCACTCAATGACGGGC
6. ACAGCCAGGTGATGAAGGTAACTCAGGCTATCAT
7. TCGCGTAGGTTAGTCGGGGCATTCAGCCAACATA

Ans:
1. 0.915
2. 0.932
3. 5.88
4. 7.41
5. 0.843
6. 0.392
7. 0.382

---

System: PPARg DBDmut:RXRa IVT, anti-PPARg (DBD mutation: PPARg1 K132A/R137A, NR concentration 270 nM, RXRa partner concentration 90 nM)
assay.details: PBM binding z-score (relative to random genomic background probes); higher = stronger binding; sequences stand for … in GC…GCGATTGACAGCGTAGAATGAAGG
I would appreciate it if you labelled entries Y when PBM binding z-score is 0.2 or higher, otherwise N.

Q: Tell me whether PBM binding z-score is at least 0.2 here: TAGCCTAGGTCTTTGGGCCAGTATAGTACGCATC
Ans: N

Q: Tell me whether PBM binding z-score is at least 0.2 here: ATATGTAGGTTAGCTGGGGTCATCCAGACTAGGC
Ans: Y

Q: Tell me whether PBM binding z-score is at least 0.2 here: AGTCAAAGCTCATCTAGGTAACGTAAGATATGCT
Ans: Y

Q: Tell me whether PBM binding z-score is at least 0.2 here: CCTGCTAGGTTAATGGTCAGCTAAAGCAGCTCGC
Ans: N

Q: Tell me whether PBM binding z-score is at least 0.2 here: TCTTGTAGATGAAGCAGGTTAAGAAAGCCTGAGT
Ans: Y

Next:
Q: Tell me whether PBM binding z-score is at least 0.2 here: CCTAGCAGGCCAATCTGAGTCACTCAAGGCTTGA
Ans: N

---

Tested on: LXRa homodimer (NR concentration 270 nM)
assay.details: PBM binding z-score (relative to random genomic background probes); higher = stronger binding; sequences stand for … in GC…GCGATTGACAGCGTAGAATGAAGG
I would appreciate it if you labelled entries true (1) when PBM binding z-score is -0.2 or higher, otherwise false (0).

Recorded results for 2 sequences are shown here.
Q: Tell me whether PBM binding z-score is at least -0.2 here: TCATATAGGTAATACGGGTGAAAGTCGGCATCTA
Ans: true (1)

Q: Tell me whether PBM binding z-score is at least -0.2 here: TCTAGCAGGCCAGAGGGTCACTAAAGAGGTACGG
Ans: false (0)

Further cases:
Q: Tell me whether PBM binding z-score is at least -0.2 here: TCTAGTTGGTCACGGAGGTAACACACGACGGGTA
Ans: false (0)

Q: Tell me whether PBM binding z-score is at least -0.2 here: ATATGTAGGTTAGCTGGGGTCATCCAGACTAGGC
Ans: true (1)

Q: Tell me whether PBM binding z-score is at least -0.2 here: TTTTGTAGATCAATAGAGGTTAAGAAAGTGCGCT
Ans: true (1)

Q: Tell me whether PBM binding z-score is at least -0.2 here: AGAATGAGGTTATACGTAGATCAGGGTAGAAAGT
Ans: true (1)

Q: Tell me whether PBM binding z-score is at least -0.2 here: TCTGCTAGGTCTGTTGGTCAGCTAACGAGCTGCC
Ans: false (0)

Q: Tell me whether PBM binding z-score is at least -0.2 here: CGAACTAGGTCAGAACCGGACAGTGAAGGATGAT
Ans: true (1)

Q: Tell me whether PBM binding z-score is at least -0.2 here: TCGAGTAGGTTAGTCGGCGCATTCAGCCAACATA
Ans: false (0)

Q: Tell me whether PBM binding z-score is at least -0.2 here: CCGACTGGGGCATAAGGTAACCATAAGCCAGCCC
Ans: false (0)

Q: Tell me whether PBM binding z-score is at least -0.2 here: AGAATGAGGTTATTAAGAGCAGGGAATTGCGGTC
Ans: true (1)

Q: Tell me whether PBM binding z-score is at least -0.2 here: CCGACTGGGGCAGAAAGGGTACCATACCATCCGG
Ans: false (0)

Q: Tell me whether PBM binding z-score is at least -0.2 here: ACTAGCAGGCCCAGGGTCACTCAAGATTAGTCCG
Ans: true (1)

Q: Tell me whether PBM binding z-score is at least -0.2 here: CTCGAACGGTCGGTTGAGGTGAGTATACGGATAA
Ans: false (0)

From: the supplement of paper PMC6555819
